- Test system: kochia (Bassia scoparia)
- test protocol: Test A postemergence, kochia
- Assay type: in vivo
- setup conditions: Postemergence, 125 g ai/ha; 0 to 100 scale, 10 days
Lab note: compare Plant response rating, Kochia with 70, writing Criterion met if less and Criterion not met if equal or more.

Sample answers from the record:
[
  {
    "smiles str": "Cc1ccc2cc3ccc(F)cc3c(-c3c(OCOC(=O)OC(C)C)c(C)nn(C)c3=O)c2c1",
    "assigned label": "Criterion not met"
  },
  {
    "smiles str": "Cc1cc(Cl)c2ccc(F)cc2c1-c1c(OCOC(=O)C(C)(C)C)c(C)nn(C)c1=O",
    "assigned label": "Criterion met"
  },
  {
    "smiles str": "Cc1ccc2ccc(F)cc2c1-c1c(OCOC(=O)C(C)(C)C)c(Cl)nn(C)c1=O",
    "assigned label": "Criterion met"
  },
  {
    "smiles str": "CC(=O)OCOc1c(C)nn(C)c(=O)c1-c1c2cc(C)ccc2cc2c(F)cc(C)cc12",
    "assigned label": "Criterion not met"
  },
  {
    "smiles str": "CC(=O)OCOc1c(Cl)nn(C)c(=O)c1-c1c2cc(C)ccc2cc2ccc(C)cc12",
    "assigned label": "Criterion not met"
  },
  {
    "smiles str": "Cn1nc(Cl)c(OCOC(=O)C(C)(C)C)c(-c2c3ccccc3cc3ccccc23)c1=O",
    "assigned label": "Criterion not met"
  }
]

Is Plant response rating, Kochia of Cc1ccc2ccccc2c1-c1c(OCOC(=O)C(C)C)c(Cl)nn(C)c1=O strictly below 70? Criterion met

Is Plant response rating, Kochia of COc1cc(OC)c2cc3ccc(F)cc3c(-c3c(OCOC(C)=O)c(C)nn(C)c3=O)c2c1 strictly below 70? Criterion met

Is Plant response rating, Kochia of CC(=O)OCOc1c(C)nn(C)c(=O)c1-c1c2ccccc2cc2ccccc12 strictly below 70? Criterion met

Is Plant response rating, Kochia of Cc1cc(C)c2cc3ccccc3c(-c3c(OCOC(=O)C(C)(C)C)c(Cl)nn(C)c3=O)c2c1 strictly below 70? Criterion met

Is Plant response rating, Kochia of COc1ccc2cc3ccc(F)cc3c(-c3c(OCOC(C)=O)c(C)nn(C)c3=O)c2c1 strictly below 70? Criterion not met

====

- Tested on: ryegrass, Italian (Italian ryegrass, Lolium multiflorum)
- test protocol: Test A postemergence, ryegrass, Italian
- Assay type: in vivo
- setup conditions: Lolium multiflorum, post-emergence, 240 h; 31 g ai/ha, postemergence; 0 to 100 scale (0 no effect, 100 complete control), 10 days; read-out: Plant response rating, Ryegrass, Italian
I would appreciate it if you labelled entries 1.0 when pest or weed control at 31 g/ha is 80% or higher, otherwise 0.0.

Sample answers from the record:
[
  {
    "smiles str": "CC(=O)OCOc1c(Cl)nn(C)c(=O)c1-c1c2ccccc2c(Cl)c2ccccc12",
    "assigned label": 0.0
  },
  {
    "smiles str": "CC(=O)OCOc1c(C)nn(C)c(=O)c1-c1c2cc(C)ccc2cc2ccc(F)cc12",
    "assigned label": 1.0
  },
  {
    "smiles str": "Cc1ccc2cc3ccc(C)cc3c(-c3c(OCOC(=O)C(C)(C)C)c(Cl)nn(C)c3=O)c2c1",
    "assigned label": 0.0
  },
  {
    "smiles str": "CC(=O)OCOc1c(Cl)nn(C)c(=O)c1-c1c(C)sc2cccc(Cl)c12",
    "assigned label": 0.0
  },
  {
    "smiles str": "CC(=O)OCOc1c(Cl)nn(C)c(=O)c1-c1c2ccccc2cc2ccccc12",
    "assigned label": 0.0
  }
]

Is reported pest or weed control at 31 g/ha greater than or equal to 80% here: COC(=O)OCOc1c(C)nn(C)c(=O)c1-c1c2cc(C)ccc2cc2ccc(F)cc12 1.0

Is reported pest or weed control at 31 g/ha greater than or equal to 80% here: CC(=O)OCOc1c(Cl)nn(C)c(=O)c1-c1c(C)ccc2ccccc12 0.0

Is reported pest or weed control at 31 g/ha greater than or equal to 80% here: COC(=O)OCOc1c(Cl)nn(C)c(=O)c1-c1c2cc(C)ccc2cc2ccc(C)cc12 0.0
